Data origin: PubChem BioAssay AID743417

- Test system: Clone20 osteoblast Shn3 3'UTR firefly luciferase, 24 h
- protocol-notes: Shn3 3'UTR reporter inhibitors, dose response, cell-based, Clone20 osteoblasts, luminescence, dry powder, set 2 (AID 743417)
Records with an inconclusive call do not appear.
measured-endpoint: AC50

Form field AC50, entry C[C@H]1CN=C(N(C)C)N1CC1CCC(C(C)(C)C)CC1 (stereo not given in full) : 2.27 µM

Form field AC50, entry CCC1CCCCN1S(=O)(=O)c1ccc(NC(=O)c2ccncc2)cc1 (stereo not given) : 3.43 µM

Form field AC50, entry C[C@H]1C[C@@H](C)C(=O)[C@@H]([C@H](O)CC2CC(=O)NC(=O)C2)C1 : 0.307 µM

Form field AC50, entry O=C(Cn1cnc2ccccc21)Nc1cccc(S(=O)(=O)N2CCCC2)c1 : 2.77 µM

Form field AC50, entry O=[N+]([O-])c1ccc(O)c(-c2cc(C(F)(F)F)nc(-c3ccccc3)n2)c1 : 2.73 µM

Form field AC50, entry O=C(c1cccc(S(=O)(=O)N2CCN(c3ccccc3)CC2)c1)N1CCCC(C(F)(F)F)C1 (stereo not given) : 2.68 µM

Form field AC50, entry COc1cc(NS(=O)(=O)c2ccc(C)cc2)c2ncccc2c1 : 3.35 µM

Form field AC50, entry CCC(C)C(NC(=O)CCCNC(=O)CCC(=O)OC1O[C@H]2OC3(C)CC[C@H]4[C@H](C)CCC(C1C)C24OO3)C(=O)O (stereo not given in full) : 1.02 µM

Form field AC50, entry Cc1ccc(NC(=O)C2=C(c3ccccc3)S(=O)(=O)CCS2(=O)=O)cc1 : 0.558 µM

Form field AC50, entry Cc1ccc(Nc2c(-c3ccccn3)nc3ccc(C)cn23)cc1 : 1.74 µM

Form field AC50, entry COc1ccc(C(=O)/C=C/C(=O)N(CC(=O)NCCC(C)C)Cc2cccs2)c(O)c1 : 3.49 µM

Form field AC50, entry COc1ccc2c(c1)sc1nc(-c3ccccc3)cn12 : 7.37 µM

Form field AC50, entry Cc1ccc(C(=O)NC2CCCc3c2cnn3-c2ccc(F)cc2F)cn1 (stereo not given) : 0.921 µM

Form field AC50, entry C=CCC[C@H](Cc1ccc(F)cc1)C(=O)OC[C@H](Cc1c[nH]c2ccccc12)NC(=O)[C@H](CC=C)CC(=O)N(CCO)Cc1ccccc1 : 11.7 µM

Form field AC50, entry COc1cc2c(OC(C)=O)c3c(c(-c4ccc5c(c4)OCO5)c2cc1OC)C(=O)OC3 : 1.8 µM

Form field AC50, entry O=C(NNC(=S)Nc1ccc(Cl)c(Cl)c1)c1ccccn1 : 2.33 µM

Form field AC50, entry Cn1cccc1C(=O)NC(=O)COC(=O)c1ccc(S(C)(=O)=O)c([N+](=O)[O-])c1 : 15.1 µM

Form field AC50, entry CCCCC(=O)NC(c1ccc(OC)cc1)c1ccc2cccnc2c1O (stereo not given) : 2.28 µM

Form field AC50, entry CCC1CN2CCc3cc(OC)c(OC)cc3C2CC1CC1NCCc2c1[nH]c1ccc(O)cc21 (stereo not given) : < 0.26 µM

Form field AC50, entry Nc1nc(N)c2cc(S(=O)(=O)c3ccc4ccccc4c3)ccc2n1 : 3.37 µM

Form field AC50, entry Cc1ccccc1OCCn1cc(C(=S)N2CCCC2)c2ccccc21 : 24.3 µM

Form field AC50, entry CCN1CCN(Cc2ccc(NC(=O)c3ccc(C)c(NC(=O)c4cncc(-c5cccs5)c4)c3)cc2C(F)(F)F)CC1 : 0.808 µM

Form field AC50, entry COc1ccc(-n2nc3c(N4CCC(C(=O)NCC(C)c5ccccc5)CC4)nnc(C)c3c2C)cc1 (stereo not given) : 3.25 µM

Form field AC50, entry COc1ccc(C(NC(C)=O)c2cc(Cl)c3cccnc3c2O)cc1OC (stereo not given) : 3.45 µM

Form field AC50, entry Cc1cc(C)nc(S/C=C/C(=O)c2ccccc2)n1 : 1.72 µM

Form field AC50, entry Cc1ccc(S(=O)(=O)CCC(=O)OCC(=O)Nc2cc(S(=O)(=O)N3CCOCC3)ccc2C)cc1 : 17.8 µM

Form field AC50, entry O=C(Nc1ccc(Cl)cc1)c1cc(S(=O)(=O)N2CCOCC2)cs1 : 4.23 µM

Form field AC50, entry CC(=O)NC(c1ccc(C)cc1)c1cc(Cl)c2cccnc2c1O (stereo not given) : 2.12 µM

Form field AC50, entry CC1(Cc2ccc(OC(F)(F)F)cc2)C(=O)Nc2c(Cl)ccc(Cl)c21 (stereo not given) : 25.7 µM

Form field AC50, entry CC[C@@H](C)[C@H](CNC)NC[C@@H](Cc1cccc2ccccc12)NCCc1cccc(C(F)(F)F)c1 : 8.08 µM

Form field AC50, entry COc1ccccc1N(C)S(=O)(=O)c1ccc(C(=O)Nc2cc(F)ccc2C)cc1 : 13.8 µM

Form field AC50, entry CC1Sc2ccc(S(=O)(=O)N3CCC(C(=O)Nc4ccc(Cl)cc4)CC3)cc2NC1=O (stereo not given) : 2.42 µM

Form field AC50, entry CC(C)(C)C(=O)N1CCN(c2ccc(NC(=O)c3ccc([N+](=O)[O-])o3)cc2)CC1 : 2.45 µM

Form field AC50, entry CC[C@H](C)C(=O)O[C@H]1C[C@@H](C)C=C2C=C[C@H](C)[C@H](CC[C@@H]3C[C@@H](O)CC(=O)O3)[C@H]21 : 1.62 µM

Form field AC50, entry CCN(c1ccccc1)S(=O)(=O)c1ccc(NC(=O)c2nc(S(C)(=O)=O)ncc2Cl)cc1 : 0.562 µM

----------
- Tested on: Clone20 osteoblast Shn3 3'UTR firefly luciferase, 24 h
- protocol-notes: Shn3 3'UTR reporter inhibitors, dose response, cell-based, Clone20 osteoblasts, luminescence, dry powder, set 2 (AID 743417)
Results filed as inconclusive are left out. Activity calls are given as the source filed them.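 How the source made its calls: active means compounds lowering the luciferase signal with a fitted half-maximal dose at most twice their top valid dose (cut at about 30 µM in these data); inconclusive means flat fits with moderate signal loss, or poor fits; inactive means the rest.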
Your answer must be one of the following: 1 (yes) (active), 0 (no) (inactive)

Field: outcome | Entry: O=C1ON=C(c2ccccc2)/C1=C/c1ccc(-c2ccccc2[N+](=O)[O-])o1 1 (yes)

Field: outcome | Entry: COc1cc2ncnc(N[C@H](C)c3ccccc3)c2cc1OC 1 (yes)

Field: outcome | Entry: COc1ccc(CCNC(=O)CCC(=O)N2CCOc3ccc(Cl)cc32)cc1OC 0 (no)

Field: outcome | Entry: CCCCC(=O)NC(c1cccc([N+](=O)[O-])c1)c1ccc2cccnc2c1O (stereo not given) 1 (yes)

Field: outcome | Entry: O=C(O)c1cccc(COc2ccccc2Cl)c1 1 (yes)

Field: outcome | Entry: Cc1ccc2nc(-c3ccc(O)c(O)c3)cn2c1 1 (yes)

Field: outcome | Entry: c1ccc(CCNc2ccnc3cc4ccccc4cc23)cc1 1 (yes)

Field: outcome | Entry: Oc1c(CN2CCOCC2)cc(COCc2ccccc2)c2cccnc12 1 (yes)

Field: outcome | Entry: Cc1cccc(Oc2cc(NC(=O)c3ccccc3)cc([N+](=O)[O-])c2)c1 1 (yes)

Field: outcome | Entry: CCN(CC)CCN1C(=O)/C(=C\c2ccc(Cl)c([N+](=O)[O-])c2)SC1=Nc1ccc(OC)cc1 1 (yes)

Field: outcome | Entry: CC(C)c1nnc(NC(=O)c2nc(S(=O)(=O)Cc3ccc(F)cc3)ncc2Cl)s1 1 (yes)

Field: outcome | Entry: O=C(Nc1ccc(Cl)cc1)/C(=C/c1cccc(O)c1)c1nc2ccccc2s1 1 (yes)

Field: outcome | Entry: CCOC(=O)c1oc2ccc(S(=O)(=O)n3nc(-c4ccc(OC)cc4)cc3N)cc2c1C 1 (yes)

Field: outcome | Entry: COc1ccc(CNCC(O)COc2cccc3c2OC(C)(C)C3)cc1 (stereo not given) 1 (yes)

Field: outcome | Entry: O=C1C=C(N2CCOCC2)c2ccccc2C1=O 1 (yes)

----------
- System: Clone20 osteoblast Shn3 3'UTR firefly luciferase, 24 h
- protocol-notes: Shn3 3'UTR reporter inhibitors, dose response, cell-based, Clone20 osteoblasts, luminescence, dry powder, set 2 (AID 743417)
Records with an inconclusive call do not appear.
measured-endpoint: AC50

Form field AC50, entry CCn1c(CNC(=O)c2cc(OC)c(OC)c(OC)c2)cc2cc(C)ccc21 : 2520 nM

Form field AC50, entry COc1ccc(NC(=O)c2sc3ncnc(N4CCN(c5ccccn5)CC4)c3c2C)cc1Cl : 4080 nM

Form field AC50, entry CCOc1ccc(S(=O)(=O)N(C)c2ccc(OCC(=O)Nc3nc4ccccc4s3)cc2)cc1 : 2820 nM

Form field AC50, entry O=C1C=CC(O)(c2cc(=O)c3c(O)cc(O)cc3o2)C=C1 : 5120 nM

Form field AC50, entry c1csc(CCNc2ncnc3sc4c(c23)CCC4)c1 : 1700 nM

Form field AC50, entry CCCCNS(=O)(=O)c1ccc(S(=O)(=O)NCc2ccncc2)cc1 : 2400 nM

Form field AC50, entry C/C1=C\[C@@H](C)C/C=C/[C@H]2[C@@H]3O[C@]3(C)[C@@H](C)[C@H]3[C@H](Cc4c[nH]c5ccccc45)NC(=O)[C@]32C(=O)/C=C/C(=O)[C@@H]1O : 6440 nM

Form field AC50, entry CN1C(=O)c2cccc(NCCCCCCN3C(=O)c4ccccc4C3=O)c2C1=O : 5570 nM

Form field AC50, entry CCN(CC)c1ccc2c(c1)oc(=O)c1c(Cl)cc(=O)oc12 : 2220 nM

Form field AC50, entry CCCOC(=O)c1ccc(OCC(O)Cn2c(C)nc3ccccc32)cc1 (stereo not drawn) : 620 nM

Form field AC50, entry CCN(C(=O)c1ccc(C(C)(C)C)cc1)c1nnc(Cn2nnc3ccccc32)s1 : 1350 nM

Form field AC50, entry COc1ccc(CCNc2cc(N3CCN(C(=O)c4ccccc4F)CC3)ccc2[N+](=O)[O-])cc1OC : 1260 nM

Form field AC50, entry Cc1ccc(C(=O)Nc2nc(-c3ccccn3)cs2)cc1S(=O)(=O)N1CCOCC1 : 838 nM

Form field AC50, entry O=C(Nc1ccc(Oc2ccccc2)cc1)C1CCN(c2c3c(nc4ncnn24)CCC3)CC1 : 5640 nM

Form field AC50, entry CCCC(=O)NC(c1ccccc1Cl)c1ccc2cccnc2c1O (stereo not drawn) : 1210 nM

Form field AC50, entry Cc1cc(C(=O)NC2CCCc3c2cnn3-c2ccc(C)c(C)c2)n(C)n1 (stereo not drawn) : < 260 nM

Form field AC50, entry Cn1nnnc1Sc1ncnc2scc(Br)c12 : 6510 nM

Form field AC50, entry NS(=O)(=O)c1ccc(CCNCc2cc(Cl)ccc2OCc2ccccc2)cc1 : 4460 nM

Form field AC50, entry CCCCCCCN(c1ccccc1)[C@@H]1C[C@H]2CCCC(=O)N3CC[C@@H](C1)[C@@H]23 : 11400 nM

Form field AC50, entry O=C(Nc1ccc(-c2nc3ncccc3o2)cc1)c1ccc([N+](=O)[O-])o1 : 1340 nM

Form field AC50, entry CCCCNc1c(-c2ccc(OC)c(SC3CCCCC3)c2)nc2ccc(C)cn12 : 3680 nM

Form field AC50, entry CCN(CC)S(=O)(=O)c1ccc(N(C)Cc2ccc(C(F)(F)F)cc2)nc1 : 5850 nM

Form field AC50, entry COC(=O)C1CN(C#N)N(c2ccc(Cl)cc2)C12c1ccccc1-c1ccccc12 (stereo not drawn) : < 260 nM
